# targetOfAssay: human muscarinic M4 receptor (Homo sapiens)
# Construct: expressed in transfected cells
# Sequence (P08173 1-479): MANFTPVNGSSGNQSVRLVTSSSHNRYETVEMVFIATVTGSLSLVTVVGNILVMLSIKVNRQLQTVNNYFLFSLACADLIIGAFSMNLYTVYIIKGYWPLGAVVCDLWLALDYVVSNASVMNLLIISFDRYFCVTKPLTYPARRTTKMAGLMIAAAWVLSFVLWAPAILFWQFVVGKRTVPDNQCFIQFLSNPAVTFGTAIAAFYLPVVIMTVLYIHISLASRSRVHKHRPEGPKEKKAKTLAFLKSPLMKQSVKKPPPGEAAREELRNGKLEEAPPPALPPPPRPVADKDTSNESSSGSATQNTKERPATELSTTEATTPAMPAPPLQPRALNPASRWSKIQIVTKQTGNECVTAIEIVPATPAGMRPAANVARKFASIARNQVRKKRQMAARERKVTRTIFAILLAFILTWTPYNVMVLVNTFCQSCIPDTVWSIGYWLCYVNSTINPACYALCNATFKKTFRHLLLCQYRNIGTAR
# assayOverview: Alphascreen Surefire phospho-ERK1/2 functional assay, M4
# Format: cell-based
# assayConditions: CHO cells stably expressing human M4; phospho-ERK1/2; * = variable results; read-out: pEC50 M4 (converted)
propertyName: EC50 (nM)
State just the number; it will be interpreted in nM.

- compound: "CCOC(=O)N1CCC2(CC(N3CCC(N4CC(F)(F)C[C@@H]4C)CC3)C2)C1 (single isomer, unassigned) [2-106 Isomer 2]"
  propertyName: "EC50"
  measurementUnit: "nM"
  numericResult: 20

Fill blank: measured EC50 of the compound CCOC(=O)N1CCC2(CC(N3CCC(c4nnnn4C)CC3)C2)C1 (single isomer, unassigned) [1-64 Isomer 2] is ____.
316

Repeat with COC(=O)N1CCC2(CC(N3CCC(C4CCCN4C(=O)OC)CC3)C2)C1 (single isomer, unassigned) [2-10 Isomer 2]
200

---

The entries below are paired with their reported Emax.
# targetOfAssay: human muscarinic M3 receptor (Homo sapiens)
# Sequence (P20309 whole entry): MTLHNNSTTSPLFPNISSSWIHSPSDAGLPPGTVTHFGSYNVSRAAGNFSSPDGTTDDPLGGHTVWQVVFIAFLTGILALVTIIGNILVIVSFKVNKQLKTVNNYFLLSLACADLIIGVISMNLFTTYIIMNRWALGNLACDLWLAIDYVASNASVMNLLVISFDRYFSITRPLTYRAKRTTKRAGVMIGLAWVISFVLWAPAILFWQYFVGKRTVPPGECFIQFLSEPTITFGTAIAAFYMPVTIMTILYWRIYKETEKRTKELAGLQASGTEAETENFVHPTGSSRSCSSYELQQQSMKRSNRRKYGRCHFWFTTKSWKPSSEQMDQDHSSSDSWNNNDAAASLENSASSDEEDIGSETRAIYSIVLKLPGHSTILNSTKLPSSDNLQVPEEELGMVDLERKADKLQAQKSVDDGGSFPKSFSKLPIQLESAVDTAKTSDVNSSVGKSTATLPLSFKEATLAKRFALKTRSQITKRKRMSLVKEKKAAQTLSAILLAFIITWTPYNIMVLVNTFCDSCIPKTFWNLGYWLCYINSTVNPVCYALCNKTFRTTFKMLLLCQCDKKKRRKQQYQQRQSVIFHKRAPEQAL
# assayOverview: Alphascreen Surefire phospho-ERK1/2 functional assay, M3
# assayConditions: CHO, read-out: % Emax cf. ACh, M3, CHO cells stably expressing human M3; relative to ACh
// return the numeric value with its unit appended

- compound: "CCOC(=O)N1CCC2(CC(N3CCC([C@@H]4CCCN4C(=O)NCCF)CC3)C2)C1 (single isomer, unassigned) [2-44 Isomer 2]"
  Emax: "8%"
- compound: "COC(=O)N1CCC2(CC(N3CCC(n4cc(C)cn4)CC3)C2)C1 (single isomer, unassigned) [1-42 Isomer 2]"
  Emax: "16%"

What value of Emax has been recorded for this entry: CCOC(=O)N1CCC2(CC(N3CCC([C@@H]4CCCN4C(=O)NC4(C)COC4)CC3)C2)C1 (single isomer, unassigned) [2-36 Isomer 2]
5%

---

# targetOfAssay: human muscarinic M4 receptor (Homo sapiens, UniProt P08173)
# Construct: expressed in transfected cells
# assayOverview: Alphascreen Surefire phospho-ERK1/2 functional assay, M4
# Assay type: cell-based
# assayConditions: CHO, read-out: % Emax cf. ACh, M4, CHO cells stably expressing human M4; relative to ACh
Assign Condition met whenever Emax does not fall below 70%; assign Condition not met whenever it does.

Tell me whether Emax is at least 70% here: CCOC(=O)N1CCC2(CC(N3CCC([C@@H]4CCCN4c4nnc(C)o4)CC3)C2)C1 (single isomer, unassigned) [2-138 Isomer 2]
Condition not met

Then what about the molecule CCOC(=O)N1CCC2(CC(N3CCC(C4CCCCN4C(=O)CC)CC3)C2)C1 (single isomer, unassigned) [4-19 Isomer 2] ?
Condition not met

Same read-out for CCOC(=O)N1CCC2(CC(N3CCC([C@@H]4CCCN4CC(F)(F)F)CC3)C2)C1 (single isomer, unassigned) [2-69 Isomer 2] ?
Condition met

Proceed to COc1ncccc1C1CCN(C2CC3(CCN(C(=O)OCCF)C3)C2)CC1 (single isomer, unassigned) [3-5 Isomer 2]
Condition met

Ok, now CCOC(=O)N1CCC2(CC(N3CCC(N4CCC[C@H]4C(=O)NC)CC3)C2)C1 (single isomer, unassigned) [2-85 Isomer 2]
Condition not met
